Would you kindly list Hemolysis at 100 μM for each of these compounds?
- Test system: human red blood cells (hRBC)
- PROTOCOL DESCRIPTION: Hemolysis
- Format: cell-based
Bridge positions count the residues as written; N and C are the ends. Square brackets hold non-standard residues; d marks the D form. Peptide text beside a SMILES is read from it. Phe(4-F) = N[C@@H](Cc1ccc(F)cc1)C(=O)O; 2Nal = N[C@@H](Cc1ccc2ccccc2c1)C(=O)O; Cit = NC(=O)NCCC[C@H](N)C(=O)O
Answer with a number only, understood to be in %.

### Prompt Reported Hemolysis at 100 μM for N=C(N)NCCC[C@@H]1NC(=O)[C@@H]2CSSC[C@H](NC(=O)[C@H](Cc3ccc4ccccc4c3)NC(=O)[C@H](CCCNC(=N)N)NC(=O)[C@H](CCCNC(=N)N)NC(=O)[C@H]3CCCN3C(=O)CNC1=O)C(=O)N[C@@H](Cc1ccc(O)cc1)C(=O)N[C@@H](CCCCN)C(=O)N[C@@H](CCCCN)C(=O)N1CCC[C@@H]1C(=O)N1CCC[C@H]1C(=O)N[C@@H](Cc1ccc(O)cc1)C(=O)N[C@@H](CCCNC(=N)N)C(=O)N[C@@H](CCCNC(N)=O)C(=O)N2 [Ex. 79] (cyclo(YR[Cit]CRG[dP]RR[2Nal]CYKK[dP]P); disulfide 4-11) : what is it?
### Response 0

### Prompt Reported Hemolysis at 100 μM for C[C@@H](O)[C@@H]1NC(=O)[C@H](CCCNC(=N)N)NC(=O)[C@H](Cc2ccc(O)cc2)NC(=O)[C@@H]2CCCN2C(=O)[C@H]2CCCN2C(=O)[C@H](CCCCN)NC(=O)[C@H](CCCNC(N)=O)NC(=O)[C@H](Cc2ccc(O)cc2)NC(=O)[C@@H]2CSSC[C@H](NC1=O)C(=O)N[C@@H](CCCNC(=N)N)C(=O)NCC(=O)N1CCC[C@@H]1C(=O)N[C@@H](CCCNC(=N)N)C(=O)N[C@@H](CCCNC(=N)N)C(=O)N[C@@H](Cc1ccc3ccccc3c1)C(=O)N2 [Ex. 131] (cyclo(YRTCRG[dP]RR[2Nal]CY[Cit]K[dP]P); disulfide 4-11) : what is it?
### Response 0

### Prompt Reported Hemolysis at 100 μM for N=C(N)NCCC[C@@H]1NC(=O)[C@@H]2CSSC[C@H](NC(=O)[C@H](Cc3ccc4ccccc4c3)NC(=O)[C@H](CCCNC(=N)N)NC(=O)[C@H](CCCNC(=N)N)NC(=O)[C@H]3CCCN3C(=O)CNC1=O)C(=O)N[C@@H](Cc1ccc(O)cc1)C(=O)N[C@@H](CCC(N)=O)C(=O)N[C@@H](CCCCN)C(=O)N1CCC[C@@H]1C(=O)N1CCC[C@H]1C(=O)N[C@@H](Cc1ccc(O)cc1)C(=O)N[C@@H](CCCNC(=N)N)C(=O)N[C@@H](Cc1ccc(F)cc1)C(=O)N2 [Ex. 99] (cyclo(YR[Phe(4-F)]CRG[dP]RR[2Nal]CYQK[dP]P); disulfide 4-11) : what is it?
### Response 1.1

### Prompt Reported Hemolysis at 100 μM for N=C(N)NCCC[C@@H]1NC(=O)[C@@H]2CSSC[C@H](NC(=O)[C@H](Cc3ccc(O)cc3)NC(=O)[C@H](CCCNC(=N)N)NC(=O)[C@H](CCCNC(=N)N)NC(=O)[C@H]3CCCN3C(=O)CNC1=O)C(=O)N[C@@H](Cc1ccc(O)cc1)C(=O)N[C@@H](CCCNC(N)=O)C(=O)N[C@@H](CCCCN)C(=O)N1CCC[C@@H]1C(=O)N1CCC[C@H]1C(=O)N[C@@H](Cc1ccc(O)cc1)C(=O)N[C@@H](CCCNC(=N)N)C(=O)N[C@@H](CCCNC(N)=O)C(=O)N2 [Ex. 112] (cyclo(YR[Cit]CRG[dP]RRYCY[Cit]K[dP]P); disulfide 4-11) : what is it?
### Response 0

---

Would you kindly list IC50 for each of these compounds?
- TARGET SYSTEM: CXCR4 (Homo sapiens)
- Sequence (P61073 whole entry): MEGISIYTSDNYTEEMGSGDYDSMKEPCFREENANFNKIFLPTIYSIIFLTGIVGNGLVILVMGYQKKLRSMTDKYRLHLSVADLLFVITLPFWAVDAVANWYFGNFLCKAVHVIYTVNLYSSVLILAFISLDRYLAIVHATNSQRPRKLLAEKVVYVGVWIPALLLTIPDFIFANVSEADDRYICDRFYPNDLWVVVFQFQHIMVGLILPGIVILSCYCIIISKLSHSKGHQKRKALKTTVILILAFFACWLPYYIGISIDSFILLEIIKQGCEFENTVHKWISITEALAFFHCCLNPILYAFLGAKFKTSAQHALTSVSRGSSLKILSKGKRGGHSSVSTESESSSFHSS
- PROTOCOL DESCRIPTION: Ca2+-assay method 2 (Flexstation, SDF-1 induced calcium mobilization)
- Format: cell-based
- Parameters: expressed in transfected cells; host or cells: mouse pre-B cell line 300-19
- REPORTED CONDITIONS: method 2 (Ex. 54-160), mouse pre-B cell line 300-19 with human CXCR4, 10 nM SDF-1; read-out: IC50 (nM) Ca^2+ assay
Bridge positions count the residues as written; N and C are the ends. Square brackets hold non-standard residues; d marks the D form. Peptide text beside a SMILES is read from it. 2Nal = N[C@@H](Cc1ccc2ccccc2c1)C(=O)O; Cit = NC(=O)NCCC[C@H](N)C(=O)O
Answer with a number only, understood to be in nM.

### Prompt Reported IC50 for CC(C)[C@@H]1NC(=O)[C@H](CCCNC(=N)N)NC(=O)[C@H](Cc2ccc(O)cc2)NC(=O)[C@@H]2CCCN2C(=O)[C@H]2CCCN2C(=O)[C@H](CCCCN)NC(=O)[C@H](CCC(N)=O)NC(=O)[C@H](Cc2ccc(O)cc2)NC(=O)[C@@H]2CSSC[C@H](NC1=O)C(=O)N[C@@H](CCCNC(=N)N)C(=O)NCC(=O)N1CCC[C@@H]1C(=O)N[C@@H](CCCNC(=N)N)C(=O)N[C@@H](CCCNC(=N)N)C(=O)N[C@@H](Cc1ccc3ccccc3c1)C(=O)N2 [Ex. 98] (cyclo(YRVCRG[dP]RR[2Nal]CYQK[dP]P); disulfide 4-11) : what is it?
### Response 3.9

### Prompt Reported IC50 for N=C(N)NCCC[C@@H]1NC(=O)[C@@H]2CSSC[C@H](NC(=O)[C@H](Cc3ccc4ccccc4c3)NC(=O)[C@H](CCCNC(=N)N)NC(=O)[C@H](CCCNC(=N)N)NC(=O)[C@H]3CCCN3C(=O)CNC1=O)C(=O)N[C@@H](Cc1ccc(O)cc1)C(=O)N[C@@H](CCC(N)=O)C(=O)N[C@@H](CCCCN)C(=O)N1CCC[C@@H]1C(=O)N1CCC[C@H]1C(=O)N[C@@H](Cc1ccc(O)cc1)C(=O)N[C@@H](CCCNC(=N)N)C(=O)N[C@@H](CC(=O)O)C(=O)N2 [Ex. 93] (cyclo(YRDCRG[dP]RR[2Nal]CYQK[dP]P); disulfide 4-11) : what is it?
### Response 4.3

### Prompt Reported IC50 for N=C(N)NCCC[C@@H]1NC(=O)[C@@H]2CSSC[C@H](NC(=O)[C@H](Cc3ccc4ccccc4c3)NC(=O)[C@H](CCCNC(=N)N)NC(=O)[C@H](CCCNC(=N)N)NC(=O)[C@H]3CCCN3C(=O)CNC1=O)C(=O)N[C@@H](Cc1ccc(O)cc1)C(=O)N[C@@H](CCC(N)=O)C(=O)N[C@@H](CCCCN)C(=O)N1CCC[C@@H]1C(=O)N1CCC[C@H]1C(=O)N[C@@H](CCCNC(=N)N)C(=O)N[C@@H](CCCNC(=N)N)C(=O)N[C@@H](CCCNC(N)=O)C(=O)N2 [compound 63] (cyclo(RR[Cit]CRG[dP]RR[2Nal]CYQK[dP]P); disulfide 4-11) : what is it?
### Response 2

### Prompt Reported IC50 for N=C(N)NCCC[C@@H]1NC(=O)[C@@H]2CSSC[C@H](NC(=O)[C@H](Cc3c[nH]c4ccccc34)NC(=O)[C@H](CCCNC(=N)N)NC(=O)[C@H](CCCNC(=N)N)NC(=O)[C@H]3CCCN3C(=O)CNC1=O)C(=O)N[C@@H](Cc1ccc(O)cc1)C(=O)N[C@@H](CCC(N)=O)C(=O)N[C@@H](CCCCN)C(=O)N1CCC[C@@H]1C(=O)N1CCC[C@H]1C(=O)N[C@@H](Cc1ccc(O)cc1)C(=O)N[C@@H](CCCNC(=N)N)C(=O)N[C@@H](CCCNC(N)=O)C(=O)N2 [Ex. 108] (cyclo(YR[Cit]CRG[dP]RRWCYQK[dP]P); disulfide 4-11) : what is it?
### Response 4.6

### Prompt Reported IC50 for N=C(N)NCCC[C@@H]1NC(=O)[C@@H]2CSSC[C@H](NC(=O)[C@H](Cc3ccc4ccccc4c3)NC(=O)[C@H](CCCNC(=N)N)NC(=O)[C@H](CCCNC(=N)N)NC(=O)[C@H]3CCCN3C(=O)CNC1=O)C(=O)N[C@@H](Cc1ccc(O)cc1)C(=O)N[C@@H](CCC(N)=O)C(=O)N[C@@H](CO)C(=O)N1CCC[C@@H]1C(=O)N1CCC[C@H]1C(=O)N[C@@H](Cc1ccc(O)cc1)C(=O)N[C@@H](CCCNC(=N)N)C(=O)N[C@@H](CCCNC(N)=O)C(=O)N2 [Ex. 87] (cyclo(YR[Cit]CRG[dP]RR[2Nal]CYQS[dP]P); disulfide 4-11) : what is it?
### Response 3.5

### Prompt Reported IC50 for N=C(N)NCCC[C@@H]1NC(=O)[C@@H]2CSSC[C@H](NC(=O)[C@H](Cc3ccc4ccccc4c3)NC(=O)[C@H](CCCNC(=N)N)NC(=O)[C@H](Cc3c[nH]c4ccccc34)NC(=O)[C@H]3CCCN3C(=O)CNC1=O)C(=O)N[C@@H](Cc1ccc(O)cc1)C(=O)N[C@@H](CCC(N)=O)C(=O)N[C@@H](CCCCN)C(=O)N1CCC[C@@H]1C(=O)N1CCC[C@H]1C(=O)N[C@@H](Cc1ccc(O)cc1)C(=O)N[C@@H](CCCNC(=N)N)C(=O)N[C@@H](CCCNC(N)=O)C(=O)N2 [Ex. 55] (cyclo(YR[Cit]CRG[dP]WR[2Nal]CYQK[dP]P); disulfide 4-11) : what is it?
### Response 6.3
